Experiment: Dynamic vapor sorption (DVS) hygroscopicity analysis
Assay type: physicochemical
Conditions: DVS, 25° C., 60 minutes hold per 10% step in relative humidity; weight increase as percentage of material weight
Description: Differences in hygroscopicity (moisture uptake) of the various forms of a solid material provide a measure of their relative stability at increasing relative humidity. […] The increase in weight due to moisture uptake was measured as a percentage of the weight of the material.
property-label: Hygroscopicity (% water uptake up to 45% relative humidity) (%)
Output spec: scalar in %, unitless text.

Value lookup for Hygroscopicity (% water uptake up to 45% relative humidity); key = Cc1ccc(S(=O)(=O)O)cc1.O[C@H]1[C@H](O)CNC[C@@H]1C(F)F [Tosylate]
0.08

Again, but for O[C@H]1[C@H](O)CNC[C@@H]1C(F)F [Free Base]
9.3

Again, but for O[C@H]1[C@H](O)CNC[C@@H]1C(F)F [Fumarate Form A]
0.09

Again, but for O=C(O)/C=C/C(=O)O.O[C@H]1[C@H](O)CNC[C@@H]1C(F)F [Fumarate Form 1B]
0.497
